Numbers sourced from the Human Domainome abundance scans (Beltran et al. 2025).

B1: Homeobox protein cut-like 2, residues 895 to 963; numbered along this chain, O14529 (parent)
chain: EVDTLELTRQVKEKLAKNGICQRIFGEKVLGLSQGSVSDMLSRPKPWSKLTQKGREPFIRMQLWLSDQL

Variants of: B1
Assay: abundance fitness (aPCA) (normalised: wild type 0, dead -1); higher = more abundant; growth selection in yeast, the domain comes from the species named
Conditions: Homo sapiens
Some variants, each annotated with its measured abundance fitness.
Number, no unit, nothing else.

In the examples that follow, each entry is paired with its recorded abundance fitness.
- record_sequence: "EVDTLELTRQVKEKLAKNGQCQRIFGEKVLGLSQGSVSDMLSRPKPWSKLTQKGREPFIRMQLWLSDQL"
  test_readout: "abundance fitness"
  quantitative_result: -0.202
- record_sequence: "EVDTLELTRQVKEKLAKNGICQRIFGEKVLGLSQGSVSDMLSRPKPWSNLTQKGREPFIRMQLWLSDQL"
  test_readout: "abundance fitness"
  quantitative_result: -0.16
- record_sequence: "EVDTLEQTRQVKEKLAKNGICQRIFGEKVLGLSQGSVSDMLSRPKPWSKLTQKGREPFIRMQLWLSDQL"
  test_readout: "abundance fitness"
  quantitative_result: -0.124
- record_sequence: "EVDTLELTRQVKEKLAKNGICQRIFGEKVLGLSQGWVSDMLSRPKPWSKLTQKGREPFIRMQLWLSDQL"
  test_readout: "abundance fitness"
  quantitative_result: -0.057
- record_sequence: "EVDTLELTRQVKEKLAKNGICQRIFGEKVLGLSQGSVSDMLSRPKPWSKLTQIGREPFIRMQLWLSDQL"
  test_readout: "abundance fitness"
  quantitative_result: -0.037
- record_sequence: "EVDTLELTRQVKEKLAKNGICQRIFGEKVLGLSQGSVSDMLSRPKPWSKLTQKGREPFIRMQLWLVDQL"
  test_readout: "abundance fitness"
  quantitative_result: -0.066
- record_sequence: "EVDTLELTTQVKEKLAKNGICQRIFGEKVLGLSQGSVSDMLSRPKPWSKLTQKGREPFIRMQLWLSDQL"
  test_readout: "abundance fitness"
  quantitative_result: -0.135
- record_sequence: "EVDTLELTRQVKEKLAKNGICQRIFGEKKLGLSQGSVSDMLSRPKPWSKLTQKGREPFIRMQLWLSDQL"
  test_readout: "abundance fitness"
  quantitative_result: -0.129

Consider "EVDTLELTRQVKEKLAKNGICQRIFGEKVLGLSQGSVSDMLSRPKPWSKLTQKGREPFIEMQLWLSDQL" . Its measured abundance fitness is -0.631

Consider "EVDTLELTRQVKEKLAKNGICQRIFGEKVLGLSQGSVSDMLSRPKKWSKLTQKGREPFIRMQLWLSDQL" . Its measured abundance fitness is -0.095

Input "EVDTLELTCQVKEKLAKNGICQRIFGEKVLGLSQGSVSDMLSRPKPWSKLTQKGREPFIRMQLWLSDQL" . Output abundance fitness: -0.21
